The values you see were collected from patent US9139532B2.

# EC50 per entry
System: Ramos cells
test-name: Cytotoxicity in Ramos cells
Assay type: cell-based
condition-details: Homo sapiens; cytotoxicity in Ramos cells; read-out: Ramos Cell EC50

These recorded examples may help you get a feel for the data.
{"compound": "CC(C)(C)NC(=NC(=O)c1ccc(Cl)cc1)Nc1cc(-c2ccc(Cl)cc2)n[nH]1 [Compound A-132]", "result": "< 10 µM"}
{"compound": "CC(N/C(=N/C(=O)c1ccc(Cl)cc1)Nc1cc(C(F)(F)F)[nH]n1)c1ccccc1Cl (centres unmarked) [Compound A-34]", "result": "< 10 µM"}
{"compound": "CC(N/C(=N/C(=O)c1ccc(C(F)(F)F)cc1)Nc1cc(C(F)(F)F)[nH]n1)c1ccc(Cl)cc1 (centres unmarked) [Compound A-23]", "result": "< 10 µM"}
{"compound": "O=C(/N=C(\\Nc1cc(C(F)(F)F)[nH]n1)NC1CCCC1)c1cccc(C(F)(F)F)c1 [Compound A-75]", "result": "< 10 µM"}
{"compound": "CCC(C)N/C(=N/C(=O)c1ccc(Cl)c(F)c1)Nc1cc(C)n[nH]1 (centres unmarked) [Compound A-178]", "result": "< 10 µM"}
{"compound": "CC(C)(C)NC(=NC(=O)c1ccc(Cl)c(F)c1)Nc1cc(-c2ccc(Cl)cc2)n[nH]1 [Compound A-469]", "result": "< 10 µM"}
{"compound": "CC(C)(C)N/C(=N/C(=O)c1ccc(Cl)cc1)Nc1n[nH]cc1C#N [Compound A-37]", "result": "> 10 µM"}

For the compound O=C(/N=C(/NCc1cccc(C(F)(F)F)c1)Nc1cc(C(F)(F)F)n[nH]1)c1ccc(Cl)cc1 [Compound A-10] , report EC50.
< 10 µM

---

target-or-system: F1F0-ATPase (Bos taurus, UniProt P13621)
quantity-kind: IC50

These recorded examples may help you get a feel for the data.
{"molecule": "CC(C)(C)N/C(=N/C(=O)c1cccc(F)c1)Nc1cc(-c2ccc(F)cc2)n[nH]1 [Compound A-456]", "IC50": "< 10 µM"}
{"molecule": "Cc1ccc(-c2cc(N/C(=N\\C(=O)c3ccc(C(F)(F)F)cc3)NC3CCCC3)[nH]n2)cc1F [Compound A-326]", "IC50": "< 10 µM"}
{"molecule": "CC1(CNC(=NC(=O)c2ccc(Cl)cc2)Nc2cc(-c3cc(F)cc(F)c3)n[nH]2)CCCO1 (centres unmarked) [Compound A-212]", "IC50": "< 10 µM"}

Enter measured IC50, system F1F0-ATPase (Bos taurus, UniProt P13621), for the molecule shown: CCC(C)CN/C(=N/C(=O)c1ccc(C(F)(F)F)cc1)Nc1cc(-c2ccc(C)c(F)c2)n[nH]1 (centres unmarked) [Compound A-330]
> 10 µM

Enter measured IC50, system F1F0-ATPase (Bos taurus, UniProt P13621), for the molecule shown: O=C(/N=C(\Nc1cc(-c2ccc(F)cc2)n[nH]1)NC1CC1)c1cccc(F)c1 [Compound A-202]
< 10 µM

Enter measured IC50, system F1F0-ATPase (Bos taurus, UniProt P13621), for the molecule shown: O=C(/N=C(\Nc1cc(-c2cc(F)cc(F)c2)n[nH]1)NC1CCCC1)c1ccc(F)cc1 [Compound A-243]
< 10 µM

Enter measured IC50, system F1F0-ATPase (Bos taurus, UniProt P13621), for the molecule shown: CC(C)(C)NC(=NC(=O)c1cccc(O)c1)Nc1cc(-c2ccc(F)cc2)n[nH]1 [Compound A-525]
< 10 µM

Enter measured IC50, system F1F0-ATPase (Bos taurus, UniProt P13621), for the molecule shown: COC(=O)c1cccc(C(=O)/N=C(\Nc2cc(-c3ccc(F)cc3)n[nH]2)NC(C)(C)C)c1 [Compound A-342]
< 10 µM

---

So I've got IC50 readings for F1F0-ATPase (Bos taurus), take a look.

These recorded examples may help you get a feel for the data.
{"molecular-string": "CC(C)CN/C(=N/C(=O)c1ccc(F)cc1)Nc1cc(-c2ccc(Cl)cc2)n[nH]1", "target-or-system": "F1F0-ATPase (Bos taurus)", "result": "< 10 µM"}
{"molecular-string": "COc1cccc(C(=O)/N=C(\\Nc2cc(-c3ccc(F)cc3)[nH]n2)NC(C)C)c1", "target-or-system": "F1F0-ATPase (Bos taurus)", "result": "< 10 µM"}
{"molecular-string": "CC(C)(C)c1n[nH]c(N/C(=N\\C(=O)c2ccc(C(F)(F)F)cc2)Nc2ccc(F)cc2Cl)c1F", "target-or-system": "F1F0-ATPase (Bos taurus)", "result": "< 10 µM"}

Next:
Enter measured IC50, system F1F0-ATPase (Bos taurus), for the compound shown: CN(/C(=N\C(=O)c1ccc(F)c(F)c1)NC(C)(C)C)c1cc(C(F)(F)F)[nH]n1
> 10 µM

---

target-or-system: F1F0-ATPase (Bos taurus)
quantity-kind: IC50

These recorded examples may help you get a feel for the data.
{"compound": "CC(C)(C)N/C(=N/C(=O)c1ccc(C(F)(F)F)cc1)Nc1cc(C(=O)O)n[nH]1 [Compound A-565]", "target-or-system": "F1F0-ATPase (Bos taurus)", "IC50": "> 10 µM"}
{"compound": "Cc1ccc(C(=O)/N=C(\\Nc2cc(-c3ccc(F)cc3)[nH]n2)NC(C)(C)C)cc1 [Compound A-550]", "target-or-system": "F1F0-ATPase (Bos taurus)", "IC50": "< 10 µM"}
{"compound": "CC(C)(C)NC(=NC(=O)c1ccc(Cl)c(F)c1)Nc1cc(-c2cccc(Cl)c2)[nH]n1 [Compound A-468]", "target-or-system": "F1F0-ATPase (Bos taurus)", "IC50": "< 10 µM"}

Next:
For the compound CCOC(C)CN/C(=N/C(=O)c1ccc(Cl)c(F)c1)Nc1cc(-c2ccc(F)cc2)n[nH]1 (stereo not shown) [Compound A-213] , report IC50.
< 10 µM

---

System: Ramos cells
test-name: Cytotoxicity in Ramos cells
Type: cell-based
condition-details: Homo sapiens; cytotoxicity in Ramos cells; read-out: Ramos Cell EC50
quantity-kind: EC50

These recorded examples may help you get a feel for the data.
{"compound": "Cc1ccc(-c2cc(NC(=NC(=O)c3ccc(C(F)(F)F)cc3)NCc3ccc(F)cc3Cl)[nH]n2)cc1F", "EC50": "> 10 µM"}
{"compound": "O=C(/N=C(/NCc1ccc(Cl)c(F)c1)Nc1cc(C(F)(F)F)[nH]n1)c1ccc(C(F)(F)F)cc1", "EC50": "< 10 µM"}
{"compound": "O=C(/N=C(/NCc1ccc(F)c(Cl)c1)Nc1cc(C(F)(F)F)[nH]n1)c1ccc(F)c(F)c1", "EC50": "< 10 µM"}
{"compound": "Cn1nc(C(F)(F)F)cc1N/C(=N\\C(=O)c1ccc(C(F)(F)F)cc1)Nc1cc(F)cc(Cl)c1", "EC50": "< 10 µM"}
{"compound": "Cc1cc(C(=O)N=C(Nc2cc(-c3ccc(F)cc3)n[nH]2)NC(C)(C)C)ccc1F", "EC50": "< 10 µM"}

For the compound O=C(N=C(Nc1cc(-c2ccc(F)cc2)n[nH]1)NC1CCOCC1)c1ccc(C(F)(F)F)cc1 , report EC50.
> 10 µM

For the compound CC(C)CNC(=NC(=O)c1ccc(Cl)cc1)Nc1cc(-c2ccc(F)cc2)n[nH]1 , report EC50.
< 10 µM

For the compound COCC(C)(C)NC(=NC(=O)c1ccc(F)cc1)Nc1cc(-c2ccc(F)cc2)n[nH]1 , report EC50.
< 10 µM

For the compound CC(C)(C)N/C(=N/C(=O)c1ccc(Cl)cc1)Nc1cc(C(F)(F)F)[nH]n1 , report EC50.
< 10 µM

For the compound O=C(/N=C(/NCc1ccc(F)c(Cl)c1)Nc1cc(C(F)F)[nH]n1)c1ccc(F)c(F)c1 , report EC50.
> 10 µM

---

System: Ramos cells
test-name: Cytotoxicity in Ramos cells
Assay type: cell-based
condition-details: Homo sapiens; cytotoxicity in Ramos cells; read-out: Ramos Cell EC50
pEC50: −log10 of the molar value.
# pEC50 per entry

{"compound": "O=C(/N=C(\\Nc1cc(C(F)(F)F)n[nH]1)NC1CCC1)c1ccc(Cl)c(F)c1", "target-or-system": "Ramos cells", "pEC50": "> 5.00"}
{"compound": "O=C(N=C(Nc1cc(-c2cc(F)cc(F)c2)n[nH]1)NC1CCC1)c1ccc(C(F)(F)F)cc1", "target-or-system": "Ramos cells", "pEC50": "> 5.00"}
{"compound": "O=C(/N=C(\\Nc1cc(C(F)(F)F)[nH]n1)NC1CCOCC1)c1ccc(Cl)cc1", "target-or-system": "Ramos cells", "pEC50": "< 5.00"}
{"compound": "CCC(C)N/C(=N/C(=O)c1ccc(F)cc1)Nc1cc(-c2ccc(Cl)cc2)n[nH]1 (stereo not drawn)", "target-or-system": "Ramos cells", "pEC50": "> 5.00"}
{"compound": "O=C(/N=C(/Nc1cc(C(F)(F)F)n[nH]1)NC1CCS(=O)(=O)C1)c1ccc(Cl)cc1 (stereo not drawn)", "target-or-system": "Ramos cells", "pEC50": "< 5.00"}

For the compound CC(C)(C)NC(=NC(=O)c1cc(F)c(F)c(F)c1)Nc1cc(-c2ccc(F)cc2)n[nH]1 , report pEC50.
> 5.00

For the compound COCC(C)NC(=NC(=O)c1ccc(C#N)cc1)Nc1cc(-c2ccc(F)cc2)n[nH]1 (stereo not drawn) , report pEC50.
< 5.00

For the compound CC(N/C(=N\C(=O)c1ccc(C(F)(F)F)cc1)Nc1cc(C(F)(F)F)n[nH]1)c1cccc(Cl)c1 (stereo not drawn) , report pEC50.
> 5.00

For the compound O=C(/N=C(\Nc1cc(C(F)(F)F)n[nH]1)NC1CCOCC1)c1ccc(F)c(F)c1 , report pEC50.
< 5.00

For the compound COC(=O)Cc1ccc(N/C(=N/C(=O)c2ccc(F)cc2)Nc2cc(C(F)(F)F)n[nH]2)cc1 , report pEC50.
> 5.00

For the compound O=C(N=C(NCc1ccc(F)cc1Cl)Nc1cc(-c2ccc(F)cc2)n[nH]1)c1ccc(F)cc1 , report pEC50.
> 5.00

For the compound Cc1cc(NC(=NC(=O)c2ccc(Cl)c(F)c2)NC(C)(C)C)[nH]n1 , report pEC50.
> 5.00

For the compound COc1cccc(CNC(=NC(=O)c2ccc(Cl)cc2)Nc2cc(-c3ccc(F)cc3)n[nH]2)c1 , report pEC50.
> 5.00

For the compound CC(C)(C)N/C(=N/C(=O)c1cccc(C#N)c1)Nc1cc(C(F)(F)F)[nH]n1 , report pEC50.
> 5.00

For the compound CCC(C)CNC(=NC(=O)c1cccc(C#N)c1)Nc1cc(-c2ccc(Cl)cc2)n[nH]1 (stereo not drawn) , report pEC50.
> 5.00
